- Protocol Notes: Tmax in wild-type mouse at 10 mg/kg, po
- Assay type: ADME, organism-based
- Design: dose 10 mg/kg, route oral
- Run Conditions: in vivo
Result Type: Tmax (min)
Respond with the bare value in min.

### Prompt Entry CC[C@@H](C(=O)[C@@H](C)[C@@H](O)[C@H](C)[C@@H]1O[C@@H]([C@@H](CC)C(=O)O)CC[C@@H]1C)[C@H]1O[C@]2(C=C[C@@H](O)[C@]3(CC[C@@](C)([C@H]4CC[C@](O)(CC)[C@H](C)O4)O3)O2)[C@H](C)C[C@@H]1C : reported Tmax = ?
### Response 30

---

- Protocol Notes: Ratio of drug uptake in brain to drug uptake in plasma in wild-type mouse at 1 mg/kg, iv after 180 mins by LC-MS/MS analysis
- Format: ADME, organism-based
- Parameters: dose 1 mg/kg, route intravenous
Result Type: Kp at 3 h
Lab note: jot the number down without any unit.

### Prompt Entry CC[C@@H](C(=O)[C@@H](C)[C@@H](O)[C@H](C)[C@@H]1O[C@@H]([C@@H](CC)C(=O)O)CC[C@@H]1C)[C@H]1O[C@]2(C=C[C@@H](O)[C@]3(CC[C@@](C)([C@H]4CC[C@](O)(CC)[C@H](C)O4)O3)O2)[C@H](C)C[C@@H]1C : reported Kp at 3 h = ?
### Response 0.13

---

- Protocol Notes: Drug uptake in wild-type mouse small intestinal content at 1 mg/kg, iv after 180 mins by LC-MS/MS analysis
- Assay type: ADME, organism-based
- Set-up: dose 1 mg/kg, route intravenous
- Run Conditions: read-out: Drug uptake
Result Type: concentration at 3 h (ng/g)
Respond with the bare value in ng/g.

### Prompt Entry CC[C@@H](C(=O)[C@@H](C)[C@@H](O)[C@H](C)[C@@H]1O[C@@H]([C@@H](CC)C(=O)O)CC[C@@H]1C)[C@H]1O[C@]2(C=C[C@@H](O)[C@]3(CC[C@@](C)([C@H]4CC[C@](O)(CC)[C@H](C)O4)O3)O2)[C@H](C)C[C@@H]1C : reported concentration at 3 h = ?
### Response 210

---

- Protocol Notes: Plasma clearance in mdr1a/1b double knockout mouse at 1 mg/kg, iv
- Format: ADME, organism-based
- Design: dose 1 mg/kg, route intravenous
Result Type: clearance (mL/min/kg)
Respond with the bare value in mL/min/kg.

### Prompt Entry CC[C@@H](C(=O)[C@@H](C)[C@@H](O)[C@H](C)[C@@H]1O[C@@H]([C@@H](CC)C(=O)O)CC[C@@H]1C)[C@H]1O[C@]2(C=C[C@@H](O)[C@]3(CC[C@@](C)([C@H]4CC[C@](O)(CC)[C@H](C)O4)O3)O2)[C@H](C)C[C@@H]1C : reported clearance = ?
### Response 6.17

---

- Protocol Notes: Drug uptake in mdr1a/1b double knockout mouse brain at 1 mg/kg, iv after 180 mins by LC-MS/MS analysis
- Format: ADME, organism-based
- Design: dose 1 mg/kg, route intravenous
- Run Conditions: read-out: Drug uptake
Result Type: concentration at 3 h (ng/g)
Respond with the bare value in ng/g.

### Prompt Entry CC[C@@H](C(=O)[C@@H](C)[C@@H](O)[C@H](C)[C@@H]1O[C@@H]([C@@H](CC)C(=O)O)CC[C@@H]1C)[C@H]1O[C@]2(C=C[C@@H](O)[C@]3(CC[C@@](C)([C@H]4CC[C@](O)(CC)[C@H](C)O4)O3)O2)[C@H](C)C[C@@H]1C : reported concentration at 3 h = ?
### Response 53.2
